// provenance: patent US11046672B2

- ASSAY NAME: Pharmacokinetic measurements in rats (intravenous and intra-tracheal dosing)
- Format: in vivo
- CONDITION NOTES: rat, i.t. dosing, 1.5 h
MEASURE NAME: BAL % administered dose at time (h) (%)

COC(=O)c1ccc2c(c1)NC(=O)/C2=C(\Nc1ccc(C(=O)NOCCN2CCN(C)CC2)cc1)c1ccccc1 [Example 4] : 0.3

I = COC(=O)c1cc2c(cc1C)/C(=C(/Nc1ccc(C(=O)NOCCN(C)C)c(C)c1)c1ccccc1)C(=O)N2 [Example 5]
II = COC(=O)c1cc2c(cc1C)/C(=C(/Nc1ccc(C(=O)NOCCN3CCN(CCO)CC3)cc1)c1ccccc1)C(=O)N2 [Example 7]
Hi team, can someone confirm which has the larger BAL % administered dose at time (h): I or II ? Thanks. Field: selected label. Fill in the label of the entry you choose. I
